- Tested on: GFP-14-3-3β
- experiment_notes: GFP-14-3-3β co-IP with LC-MS/MS, untreated GFP-14-3-3β versus GFP control (14-3-3 interactome)
- Assay type: binding, human
- experimental_context: untreated vs GFP; LFQ intensities, replicates 1-3
readout_label: Difference (log2), untreated vs GFP
Write down the numeric answer in log2 and omit the unit.

-- ask // returns reported Difference (log2), untreated vs GFP for input YWHAH (protein, UniProt Q04917 2-246, looked up) 14-3-3 protein eta: GDREQLLQRARLAEQAERYDDMASAMKAVTELNEPLSNEDRNLLSVAYKNVVGARRSSWRVISSIEQKTMADGNEKKLEKVKAYREKIEKELETVCNDVLSLLDKFLIKNCNDFQYESKVFYLKMKGDYYRYLAEVASGEKKNSVVEASEAAYKEAFEISKEQMQPTHPIRLGLALNFSVFYYEIQNAPEQACLLAKQAFDDAIAELDTLNEDSYKDSTLIMQLLRDNLTLWTSDQQDEEAGEGN
-- reply 7.762

-- ask What does the record list as Difference (log2), untreated vs GFP for HNRNPA2B1 (protein, UniProt P22626 1-353, looked up) Heterogeneous nuclear …: MEKTLETVPLERKKREKEQFRKLFIGGLSFETTEESLRNYYEQWGKLTDCVVMRDPASKRSRGFGFVTFSSMAEVDAAMAARPHSIDGRVVEPKRAVAREESGKPGAHVTVKKLFVGGIKEDTEEHHLRDYFEEYGKIDTIEIITDRQSGKKRGFGFVTFDDHDPVDKIVLQKYHTINGHNAEVRKALSRQEMQEVQSSRSGRGGNFGFGDSRGGGGNFGPGPGSNFRGGSDGYGSGRGFGDGYNGYGGGPGGGNFGGSPGYGGGRGGYGGGGPGYGNQGGGYGGGYDNYGGGNYGSGNYNDFGNYNQQPSNYGPMKSGNFGGSRNMGGPYGGGNYGPGGSGGSGGYGGRSRY ?
-- reply 1.703
